Tested on: Activated Calf Thymus DNA
Measurement protocol: DNA/methyl green assay (DNA intercalation)
Assay type: binding
Measurement parameters: 50% inhibition concentration of DNA/methyl green assay; read-out: DNA/Methyl green (IC50)
Measure name: IC50 (µM)
The reply should be a number in µM, with the unit left off.

[
  {
    "Compound": "OCCNc1nc2ccccc2c2nnc(C(F)(F)F)n12",
    "Measure name": "IC50",
    "Number": 11.1
  }
]

Would you kindly share the measured IC50 for "FC(F)(F)c1nnc2c3ccccc3nc(NC3CCCCC3)n12" ?
23.6

Now try Cc1ccc(-c2nnc3c4ccccc4nc(N(C)C)n23)cc1 [Compound 13a] .
52.9

---

The entries below are paired with their reported pIC50.
Tested target: Topoisomerase II (Topo II) (Homo sapiens, UniProt P11388)
Construct: purchased TopoGEN, Inc., Columbus
Sequence (P11388 whole entry): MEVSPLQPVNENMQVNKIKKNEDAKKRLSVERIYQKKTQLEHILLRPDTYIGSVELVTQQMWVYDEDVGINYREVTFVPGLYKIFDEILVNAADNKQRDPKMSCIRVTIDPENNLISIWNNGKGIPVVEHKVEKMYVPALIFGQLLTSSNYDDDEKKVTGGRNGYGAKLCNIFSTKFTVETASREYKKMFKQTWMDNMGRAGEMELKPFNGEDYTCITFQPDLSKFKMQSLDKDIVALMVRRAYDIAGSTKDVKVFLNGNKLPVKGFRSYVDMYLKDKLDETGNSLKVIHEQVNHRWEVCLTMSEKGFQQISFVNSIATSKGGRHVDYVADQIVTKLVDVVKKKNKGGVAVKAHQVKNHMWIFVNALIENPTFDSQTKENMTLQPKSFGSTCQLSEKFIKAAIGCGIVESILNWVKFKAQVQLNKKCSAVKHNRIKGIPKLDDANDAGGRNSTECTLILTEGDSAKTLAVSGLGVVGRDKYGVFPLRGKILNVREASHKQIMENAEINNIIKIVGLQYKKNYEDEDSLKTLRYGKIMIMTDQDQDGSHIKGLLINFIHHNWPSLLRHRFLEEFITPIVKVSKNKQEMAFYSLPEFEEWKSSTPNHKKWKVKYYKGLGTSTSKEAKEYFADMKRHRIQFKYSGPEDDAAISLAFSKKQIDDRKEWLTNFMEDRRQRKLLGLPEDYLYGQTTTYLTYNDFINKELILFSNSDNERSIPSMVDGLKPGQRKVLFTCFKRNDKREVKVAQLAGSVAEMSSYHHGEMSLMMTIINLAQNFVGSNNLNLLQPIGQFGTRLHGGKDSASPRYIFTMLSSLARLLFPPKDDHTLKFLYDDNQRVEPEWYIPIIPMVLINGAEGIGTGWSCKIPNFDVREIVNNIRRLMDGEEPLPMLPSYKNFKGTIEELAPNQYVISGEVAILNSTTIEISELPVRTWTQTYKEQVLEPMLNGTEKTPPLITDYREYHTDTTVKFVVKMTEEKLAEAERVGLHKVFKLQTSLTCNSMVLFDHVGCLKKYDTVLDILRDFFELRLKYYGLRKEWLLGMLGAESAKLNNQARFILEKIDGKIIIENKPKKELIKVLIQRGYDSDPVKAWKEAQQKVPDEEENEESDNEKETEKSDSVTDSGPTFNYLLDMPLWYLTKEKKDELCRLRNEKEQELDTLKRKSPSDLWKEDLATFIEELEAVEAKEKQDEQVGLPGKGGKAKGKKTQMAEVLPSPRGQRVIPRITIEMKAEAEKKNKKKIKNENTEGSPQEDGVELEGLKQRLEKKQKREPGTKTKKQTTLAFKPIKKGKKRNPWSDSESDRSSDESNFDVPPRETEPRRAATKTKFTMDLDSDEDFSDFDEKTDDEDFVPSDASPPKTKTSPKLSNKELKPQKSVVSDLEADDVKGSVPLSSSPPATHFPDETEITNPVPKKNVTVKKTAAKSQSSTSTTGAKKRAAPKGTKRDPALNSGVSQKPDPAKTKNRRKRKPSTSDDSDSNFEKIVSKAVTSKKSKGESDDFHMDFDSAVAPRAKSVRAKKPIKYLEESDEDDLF
Measurement protocol: In vitro Topo II inhibitory assay (TopoGEN Topo II drug screening kit)
Assay type: biochemical
A value of pIC50 is the negative decimal logarithm of a concentration given in moles per litre.

These recorded examples may help you get a feel for the data.
[
  {
    "Molecule": "CN(C)c1nc2ccccc2c2nnc(C(F)(F)F)n12 [Compound 18]",
    "Tested target": "Topoisomerase II (Topo II) (Homo sapiens, UniProt P11388)",
    "Measure name": "pIC50",
    "Number": 4.74
  },
  {
    "Molecule": "OCCNc1nc2ccccc2c2nnc(C(F)(F)F)n12 [Compound 17]",
    "Tested target": "Topoisomerase II (Topo II) (Homo sapiens, UniProt P11388)",
    "Measure name": "pIC50",
    "Number": 4.75
  },
  {
    "Molecule": "Cc1ccc(-c2nnc3c4ccccc4nc(NC4CCCCC4)n23)cc1 [Compound 14a]",
    "Tested target": "Topoisomerase II (Topo II) (Homo sapiens, UniProt P11388)",
    "Measure name": "pIC50",
    "Number": 4.52
  },
  {
    "Molecule": "Cc1ccc(-c2nnc3c4ccccc4nc(N(C)C)n23)cc1 [Compound 13a]",
    "Tested target": "Topoisomerase II (Topo II) (Homo sapiens, UniProt P11388)",
    "Measure name": "pIC50",
    "Number": 4.44
  },
  {
    "Molecule": "FC(F)(F)c1nnc2c3ccccc3nc(N3CCOCC3)n12 [Compound 20]",
    "Tested target": "Topoisomerase II (Topo II) (Homo sapiens, UniProt P11388)",
    "Measure name": "pIC50",
    "Number": 4.69
  },
  {
    "Molecule": "FC(F)(F)c1nnc2c3ccccc3nc(NC3CCCCC3)n12 [Compound 19]",
    "Tested target": "Topoisomerase II (Topo II) (Homo sapiens, UniProt P11388)",
    "Measure name": "pIC50",
    "Number": 4.73
  }
]

Then there is this molecule:
Value lookup for pIC50; key = CCCNc1nc2ccccc2c2nnc(C(F)(F)F)n12 [Compound 16]
4.82

---

Measured IC50, listed per entry.
Tested on: Activated Calf Thymus DNA
Measurement protocol: DNA/methyl green assay (DNA intercalation)
Assay type: binding
Measurement parameters: 50% inhibition concentration of DNA/methyl green assay; read-out: DNA/Methyl green (IC50)
Just the number please, in µM, no unit attached.

Some solved cases for reference:
[
  {
    "Molecule": "CCCNc1nc2ccccc2c2nnc(C(F)(F)F)n12",
    "Measure name": "IC50",
    "Number": 10.2
  },
  {
    "Molecule": "COc1cccc2c1C(=O)c1c(O)c3c(c(O)c1C2=O)C[C@@](O)(C(=O)CO)C[C@@H]3O[C@H]1C[C@H](N)[C@H](O)[C@H](C)O1 [Doxorubicin, reference compound]",
    "Measure name": "IC50",
    "Number": 5.64
  },
  {
    "Molecule": "Cc1ccc(-c2nnc3c4ccccc4nc(NC4CCCCC4)n23)cc1 [Compound 14a]",
    "Measure name": "IC50",
    "Number": 22.5
  },
  {
    "Molecule": "FC(F)(F)c1nnc2c3ccccc3nc(N3CCOCC3)n12",
    "Measure name": "IC50",
    "Number": 34.5
  }
]

Fill in the recorded IC50 for this molecule, with Activated Calf Thymus DNA as test system: "CN(C)c1nc2ccccc2c2nnc(C(F)(F)F)n12"
12.5
